- Test system: A. baumannii 1649
- test details: MIC assay, strain 1649
- Format: cell-based, Acinetobacter baumannii
- condition notes: Acinetobacter baumannii; strain 1649; Table 2; read-out: 1649 MIC
Below is a list of entries, each paired with its recorded MIC value.
measured metric: MIC (µM)

{"record smiles": "CNc1nc(NCc2ccccc2)nc2cc(C)ccc12", "assayed system": "A. baumannii 1649", "measurement units": "µM", "qualifier symbol": "=", "reported": 25}
{"record smiles": "CNc1nc(NCc2ccccc2)nc2cc(Br)ccc12", "assayed system": "A. baumannii 1649", "measurement units": "µM", "qualifier symbol": "=", "reported": 25}
{"record smiles": "CNc1nc(NCc2ccccc2)nc2ccc(C)cc12", "assayed system": "A. baumannii 1649", "measurement units": "µM", "qualifier symbol": "=", "reported": 25}
{"record smiles": "CNc1nc(NCc2ccccc2)nc2ccccc12", "assayed system": "A. baumannii 1649", "measurement units": "µM", "qualifier symbol": ">", "reported": 50}
{"record smiles": "CNc1nc(NCc2ccccc2)nc2ccc(Br)cc12", "assayed system": "A. baumannii 1649", "measurement units": "µM", "qualifier symbol": "=", "reported": 12}
